Record form. Attribute: residual activity. Fill in for each entry.
TESTED SYSTEM: TXK (human) (UniProt P42681)
Sequence (P42681 whole entry, looked up): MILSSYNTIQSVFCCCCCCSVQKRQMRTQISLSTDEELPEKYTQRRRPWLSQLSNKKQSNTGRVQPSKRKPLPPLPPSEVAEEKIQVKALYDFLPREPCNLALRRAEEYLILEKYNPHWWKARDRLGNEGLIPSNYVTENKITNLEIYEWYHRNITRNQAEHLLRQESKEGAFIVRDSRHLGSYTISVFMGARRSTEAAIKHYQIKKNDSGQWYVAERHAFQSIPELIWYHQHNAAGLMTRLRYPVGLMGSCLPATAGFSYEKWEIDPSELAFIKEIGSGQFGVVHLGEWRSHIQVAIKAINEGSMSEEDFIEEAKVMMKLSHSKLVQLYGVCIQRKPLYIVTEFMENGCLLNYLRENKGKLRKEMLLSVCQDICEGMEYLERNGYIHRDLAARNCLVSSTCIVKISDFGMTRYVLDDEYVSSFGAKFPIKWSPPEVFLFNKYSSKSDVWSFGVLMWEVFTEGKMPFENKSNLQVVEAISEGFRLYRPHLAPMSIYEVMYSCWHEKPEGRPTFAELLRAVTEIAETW
RUN DESCRIPTION: radiometric filter-binding kinase assay, Kinase HotSpot
COND: compound 0.5 µM; ATP 10 µM
Please respond with the number in % and leave the unit unwritten.

What value of residual activity has been recorded for this entry: Cn1sc(=O)n(Cc2ccccc2)c1=O
99.8

What does the data say about its residual activity? Entry: O=C1NC(=O)C(c2c[nH]c3ccccc23)=C1c1c[nH]c2ccccc12
101

Query (compound): Cn1cnc2cc3c(Nc4cccc(Br)c4)ncnc3cc21 ; field requested: residual activity
86.7

Consider the compound O=C1Nc2ccccc2/C1=C1/Nc2ccccc2/C1=N\OCCC(O)CO (stereo not drawn) and give its measured residual activity.
25.6

Quick one: residual activity for COc1ccc(CNC(=O)Nc2ncc([N+](=O)[O-])s2)cc1 ?
96.9

Request the reported residual activity associated with COc1cc2ncc(-c3ccccc3)nc2cc1OC
93.4

Endpoint output: residual activity of O=C1Cc2c([nH]c3ccc(Br)cc23)-c2ccccc2N1 . Value?
82.6

Can you look up the measured residual activity of O=C(Nc1cccc(Nc2cc(Nc3cccc(C(F)(F)F)c3)ncn2)c1)C1CC1 for me?
97.1

Which measured residual activity value corresponds to Cc1nc2cc3nc(-c4cccs4)cnc3cc2n1C ?
102

Entry Nc1nccc(-c2c(-c3ccc(F)cc3)ncn2C2CCNCC2)n1 : reported residual activity = ?
99.1

Can you share its residual activity? I mean this compound: CN(C)C[C@H]1CCn2c(c(C3=C(c4cn(C)c5ccccc45)C(=O)NC3=O)c3ccccc32)C1
103

Please give the measured residual activity for this compound: O=C1Nc2ccccc2/C1=C1\Nc2ccccc2\C1=N/O
66.7

Consider the compound shown here: CN([C@@H](Cc1ccc(OS(=O)(=O)c2cccc3cnccc23)cc1)C(=O)N1CCN(c2ccccc2)CC1)S(=O)(=O)c1cccc2cnccc12 What is its recorded residual activity?
94.3

Entry under review: CCN(CC)CCCCN1c2ccccc2Oc2ccc(Cl)cc21 . Reported residual activity?
101

I have this compound here, Cn1nc2c3c(cccc31)C(=O)c1ccccc1-2 , and I need its recorded residual activity.
92

Report residual activity for Nc1nnc2[nH]c3ccccc3nc1-2 please.
97.6

So what's the measured residual activity for this one? COc1ccc(OC)c2c(=S)c3ccccc3[nH]c12
101

Report residual activity for CCn1cnc2c(Nc3cccc(Cl)c3)nc(N[C@@H]3CCCC[C@@H]3N)nc21 please.
69.1

Quick one: residual activity for O=C(O)/C=C/c1cc(Br)c(Br)c(Br)c1Br ?
98.7

What residual activity value was documented for this compound, CC(=O)O/N=C1\C(=C2\C(=O)Nc3cc(Br)ccc32)Nc2ccccc21 ?
46.4

Item O=C1NC(=O)C(c2cn(CCCO)c3ncccc23)=C1c1cnccn1 has what recorded residual activity?
75.3

What value of residual activity has been reported for the following compound? O=C(CCCc1ccc(-c2ccccc2F)cc1)Nc1ccc(O)cc1
97.7

// returns reported residual activity for input CC(C)c1nn(-c2c(Cl)cccc2Cl)c2nc(Cc3ccc(OCCO)cc3)nc(O)c12
101

* * *

TESTED SYSTEM: CDK6 CCND3 (human) (UniProt P30281+Q00534)
Sequence (P30281 whole entry, looked up): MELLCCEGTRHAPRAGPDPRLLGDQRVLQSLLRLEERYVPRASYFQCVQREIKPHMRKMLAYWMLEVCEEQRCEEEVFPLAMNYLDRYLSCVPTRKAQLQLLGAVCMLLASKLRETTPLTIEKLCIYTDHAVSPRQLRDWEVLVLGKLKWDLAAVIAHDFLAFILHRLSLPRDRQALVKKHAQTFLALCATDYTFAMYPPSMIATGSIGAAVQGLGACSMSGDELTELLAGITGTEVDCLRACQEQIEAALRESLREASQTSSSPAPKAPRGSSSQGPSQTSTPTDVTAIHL
Sequence (Q00534 whole entry, looked up): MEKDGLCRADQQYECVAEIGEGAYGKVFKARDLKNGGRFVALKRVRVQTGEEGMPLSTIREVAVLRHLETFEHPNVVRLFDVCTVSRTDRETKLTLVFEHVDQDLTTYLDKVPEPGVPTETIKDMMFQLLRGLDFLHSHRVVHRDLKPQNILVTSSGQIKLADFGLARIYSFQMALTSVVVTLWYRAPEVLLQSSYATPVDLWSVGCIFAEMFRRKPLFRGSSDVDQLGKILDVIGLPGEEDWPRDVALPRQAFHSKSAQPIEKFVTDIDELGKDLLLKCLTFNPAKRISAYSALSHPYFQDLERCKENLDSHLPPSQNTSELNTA
RUN DESCRIPTION: radiometric filter-binding kinase assay, Kinase HotSpot
COND: compound 0.5 µM; ATP 10 µM
ASSAY READOUT: residual activity (%)
Lab book: enter the figure in %, no units written.

Param item = c1cc(-c2cnn3cc(-c4ccc(OCCN5CCCCC5)cc4)cnc23)ccn1 ; retrieve measured residual activity.
14.8

Would you mind telling me what residual activity value was observed for O=C(CCCc1ccc(-c2ccccc2F)cc1)Nc1ccc(O)cc1 ?
103

Using the record for Nc1nnc2[nH]c3ccccc3nc1-2 , report its residual activity.
105

Query: residual activity; subject: Cc1nc2cc3nc(-c4cccs4)cnc3cc2n1C
87.8

Value lookup for residual activity; key = Cn1cnc2cc3c(Nc4cccc(Br)c4)ncnc3cc21
107

Requested read-out: residual activity. Entry: CC(C)c1nn(-c2c(Cl)cccc2Cl)c2nc(Cc3ccc(OCCO)cc3)nc(O)c12
46.6
